target.system: T1, human PVRIG-his (AcroBiosystems, Cat NO. PVG-H52H4) (human, UniProt Q6DKI7 41-171, limits assumed)
T1 construct: also called human PVRIG protein
T1 sequence (looked up): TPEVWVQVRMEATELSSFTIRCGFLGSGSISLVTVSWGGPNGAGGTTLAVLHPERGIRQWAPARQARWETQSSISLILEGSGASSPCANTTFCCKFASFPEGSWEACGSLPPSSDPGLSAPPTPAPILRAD
run.description: SPR (BIAcore), antibody captured on Protein A chip, human PVRIG-His analyte
quantity.name: log10(kon) (log10 of the value in M⁻¹ s⁻¹)
In plain terms, each number is the log10 of measured kon in M⁻¹ s⁻¹.

Request: Item under review: PVRIG-A105-H1 (Fc fusion, humanized variant of PVRIG-A105; also called A105.VH1; not shown: constant part not restated for the humanized forms; parents are VHH-hinge-CH2-CH3 of human IgG1; detected by anti-human) EVQLVESGGGLVQPGGSLRLSCAASGRTFDRHTMSWFRQAPGKEREFVATASRIPGDTYYVDSVKGRFTISRDNAKNSLYLQMNSLRAEDTAVYYCAATSAYCSEVDCYEKGSWYDNWGQGTMVTVSS . Reported log10(kon)?
Result: 6.14
